- target-of-assay: PI3K α (Homo sapiens, UniProt P42336)
- Construct: Full length p110 subunits of PI3K α, β and δ, N-terminally labeled with polyHis tag; polyHis (N); made in house; host or cells: Sf9 insect cells (baculovirus)
- Sequence (P42336 whole entry, species assumed): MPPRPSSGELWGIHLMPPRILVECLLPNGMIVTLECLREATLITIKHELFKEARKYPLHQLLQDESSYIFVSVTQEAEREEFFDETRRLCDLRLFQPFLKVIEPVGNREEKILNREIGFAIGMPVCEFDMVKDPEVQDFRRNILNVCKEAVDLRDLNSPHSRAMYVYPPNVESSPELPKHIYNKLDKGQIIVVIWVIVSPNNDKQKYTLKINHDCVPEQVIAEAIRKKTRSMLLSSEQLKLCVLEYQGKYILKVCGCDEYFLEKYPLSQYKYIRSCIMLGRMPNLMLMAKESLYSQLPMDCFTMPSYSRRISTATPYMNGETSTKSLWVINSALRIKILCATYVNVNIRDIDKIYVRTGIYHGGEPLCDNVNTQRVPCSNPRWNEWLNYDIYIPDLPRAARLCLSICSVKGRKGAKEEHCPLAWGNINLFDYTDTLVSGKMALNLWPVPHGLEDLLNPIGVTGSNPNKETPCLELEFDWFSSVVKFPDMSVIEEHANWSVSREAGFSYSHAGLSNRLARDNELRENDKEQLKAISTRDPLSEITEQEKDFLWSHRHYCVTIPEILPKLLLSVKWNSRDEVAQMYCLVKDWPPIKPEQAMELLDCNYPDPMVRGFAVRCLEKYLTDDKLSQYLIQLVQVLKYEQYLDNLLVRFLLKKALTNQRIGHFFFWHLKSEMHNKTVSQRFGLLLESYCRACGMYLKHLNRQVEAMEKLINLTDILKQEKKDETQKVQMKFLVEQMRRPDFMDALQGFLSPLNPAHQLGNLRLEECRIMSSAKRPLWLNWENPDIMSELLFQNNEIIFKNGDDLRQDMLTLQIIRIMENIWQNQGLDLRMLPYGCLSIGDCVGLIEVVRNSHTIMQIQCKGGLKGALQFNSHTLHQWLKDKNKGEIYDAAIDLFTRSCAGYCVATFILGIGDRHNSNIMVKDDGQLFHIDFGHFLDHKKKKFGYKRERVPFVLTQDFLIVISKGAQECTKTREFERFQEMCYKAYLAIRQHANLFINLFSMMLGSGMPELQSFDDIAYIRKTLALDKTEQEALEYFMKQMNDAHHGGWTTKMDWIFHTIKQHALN
- Sequence (P27986 whole entry partner, species assumed): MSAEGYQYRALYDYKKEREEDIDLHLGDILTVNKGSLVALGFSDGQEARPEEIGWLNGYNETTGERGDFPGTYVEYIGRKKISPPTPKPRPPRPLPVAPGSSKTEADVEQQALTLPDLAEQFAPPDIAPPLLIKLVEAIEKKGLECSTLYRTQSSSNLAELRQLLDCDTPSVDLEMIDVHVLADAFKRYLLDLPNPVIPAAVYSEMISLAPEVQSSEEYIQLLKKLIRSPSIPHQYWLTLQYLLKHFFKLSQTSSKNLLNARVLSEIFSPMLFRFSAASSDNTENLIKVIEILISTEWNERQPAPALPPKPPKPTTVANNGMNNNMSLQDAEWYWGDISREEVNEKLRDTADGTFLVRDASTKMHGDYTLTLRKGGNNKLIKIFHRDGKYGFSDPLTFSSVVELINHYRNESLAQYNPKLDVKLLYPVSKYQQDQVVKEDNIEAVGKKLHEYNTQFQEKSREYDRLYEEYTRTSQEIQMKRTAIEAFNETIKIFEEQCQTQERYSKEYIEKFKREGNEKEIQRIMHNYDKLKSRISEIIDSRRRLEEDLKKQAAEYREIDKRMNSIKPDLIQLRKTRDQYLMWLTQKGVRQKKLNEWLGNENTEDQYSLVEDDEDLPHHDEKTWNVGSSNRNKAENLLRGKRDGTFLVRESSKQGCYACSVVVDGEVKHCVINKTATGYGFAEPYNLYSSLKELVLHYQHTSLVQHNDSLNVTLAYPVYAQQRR
- protocol-notes: In vitro PI3 kinase enzyme assay (alpha), ATP loss, bioluminescence;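 also: purified p110α/p85 heterodimer acting on PtdIns(4,5)P2 at room temperature, remaining ATP read by luminescence, inhibition scaled between compound-free wells with and without enzyme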
- Format: biochemical
- test-context: read-out: PI3Kα ATP loss IC50
observable: IC50 (nM)

# molecule, IC50 / nM
rows = [
    ("CC(=O)Nc1nc2ccc(-c3ccnc(Sc4cccc(Cl)c4)n3)cc2s1 [Example 140]", 83.6),
    ("CC(=O)Nc1nc2ccc(-c3ccnc(SCc4ccccc4C)n3)cc2s1 [Example 37]", 119),
    ("CC(=O)Nc1nc2ccc(-c3ccnc(N4CCOCC4)n3)cc2s1 [Example 160]", 2740),
    ("CC(=O)Nc1nc2ccc(-c3ccnc(Sc4ccc(C)cc4C)n3)cc2s1 [Example 122]", 19.6),
    ("CC(C)(C)OC(=O)Nc1nc2ccc(-c3nnc(N(Cc4ccccc4)S(C)(=O)=O)o3)cc2s1 [Example 170]", 3910),
    ("CC(=O)Nc1nc2ccc(-c3ccnc(NC4CCOCC4)n3)cc2s1 [Example 261]", 900),
    ("COc1ccc(S(=O)(=O)c2cccc(-c3ccc4nc(NC(C)=O)sc4c3)n2)cc1 [Example 68]", 86.5),
    ("COc1ccc(S(=O)(=O)Nc2cccc(-c3ccc4nc(NC(C)=O)sc4n3)c2)cc1 [Example 146]", 117),
]

a. CC(=O)Nc1nc2ccc(-c3ccnc(OCCO)n3)cc2s1 [Example 104]
b. Oc1cc(-c2ccc3ncsc3c2)cnc1Cl [Example 334]
Ask | Which of these two has the smaller recorded IC50: a or b ? Your answer should be the label attached to the chosen record.
Reply | b

a. Nc1nc2ccc(-c3cnc(Cl)c(NS(=O)(=O)c4ccc(C(F)(F)F)cc4Cl)c3)cc2s1 [Example 308]
b. COc1ccc(Sc2cncc(-c3ccc4nc(NC(C)=O)sc4c3)n2)cc1 [Example 133]
c. CC(=O)Nc1nc2ccc(-c3cncc(OCCN4CCC(F)C4=O)c3)cc2s1 (stereo not drawn) [Example 255]
d. Cc1ccc(S(=O)(=O)Nc2nnc(-c3ccc4nc(N)sc4c3)o2)cc1 [Example 165]
e. CC(=O)Nc1nc2ccc(-c3cnc(Cl)c(NS(=O)(=O)c4ccc(C(C)(C)O)cc4)c3)cc2s1 [Example 161]
Ask | Sort entries by IC50 from minimum to maximum value. Please list the labels according to the requested order.
Reply | a, e, b, d, c
(a: 2.6 nM, e: 13.7 nM, b: 41.5 nM, d: 196 nM, c: 794 nM)

A. COc1ccc(-c2cccc3nc(NC(C)=O)sc23)cc1F [Example 94]
B. CC(=O)Nc1nc2ccc(-c3cncc(N(C)S(=O)(=O)c4ccc(C)cc4)n3)cc2s1 [Example 127]
Ask | Please compare: A and B . Report which one has the smaller IC50 value. Which one? Tell me its label.
Reply | B
(B: 27.8 nM, A: 998 nM)
